Target: Potassium voltage-gated channel subfamily KQT member 2 (Rattus norvegicus) (UniProt O88943)
Sequence (O88943 whole entry, looked up): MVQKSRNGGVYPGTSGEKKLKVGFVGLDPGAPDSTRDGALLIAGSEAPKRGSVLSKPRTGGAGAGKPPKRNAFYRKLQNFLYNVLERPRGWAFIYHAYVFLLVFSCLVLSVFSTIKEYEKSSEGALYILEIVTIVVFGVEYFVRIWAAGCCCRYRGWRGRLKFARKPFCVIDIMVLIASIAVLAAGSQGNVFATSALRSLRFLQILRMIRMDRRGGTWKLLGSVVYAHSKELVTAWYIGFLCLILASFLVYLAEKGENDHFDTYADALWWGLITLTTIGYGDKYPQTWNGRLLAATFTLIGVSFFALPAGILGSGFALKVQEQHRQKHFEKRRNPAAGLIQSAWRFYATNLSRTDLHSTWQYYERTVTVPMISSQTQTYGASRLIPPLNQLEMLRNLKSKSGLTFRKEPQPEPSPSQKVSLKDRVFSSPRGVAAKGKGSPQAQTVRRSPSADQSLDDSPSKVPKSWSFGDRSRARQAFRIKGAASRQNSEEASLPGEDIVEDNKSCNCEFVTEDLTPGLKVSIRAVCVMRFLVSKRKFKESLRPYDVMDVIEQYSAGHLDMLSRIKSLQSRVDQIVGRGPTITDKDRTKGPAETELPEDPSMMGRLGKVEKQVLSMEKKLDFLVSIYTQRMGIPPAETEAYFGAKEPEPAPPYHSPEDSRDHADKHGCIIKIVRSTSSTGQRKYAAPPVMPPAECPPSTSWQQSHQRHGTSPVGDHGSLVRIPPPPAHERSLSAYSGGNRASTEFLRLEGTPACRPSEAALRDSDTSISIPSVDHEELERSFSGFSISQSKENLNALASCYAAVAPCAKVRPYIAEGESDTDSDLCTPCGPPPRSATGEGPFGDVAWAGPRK
Assay: rat KCNQ2 channel potentiation, selectivity assay for KCNQ1 potentiator project, KCNQ2-CHO-K1 cells (AID 493009);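 note: assay conditions were tuned for KCNQ1 rather than KCNQ2 modulators; signal is max minus min fluorescence divided by baseline after thallium stimulus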
Settings: FluxOR thallium flux fluorescence, at 10 µM, scaled: buffer 0, activator control 100
Calls of active or inactive are those of the source.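 Rule for the calls: active = mean duplicate potentiation above the buffer control mean plus 5 SD of buffer wells; inactive = the rest.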
Outcomes you can answer with include only these: active, inactive

Worked set:
O=C(NC(=S)Nc1nc(-c2ccccc2)cs1)c1cccs1: inactive
CNC(=S)Nc1sc2c(c1C(=O)OC)CCC2: active
COc1ccc(CNC(=O)COC(=O)/C=C/c2ccc(Cl)cc2)cc1: inactive
CC12CCC(C(=O)N(CSC(=S)N/N=C\c3ccccc3)C1=O)C2(C)C (configuration not stated): inactive
CCOC(=O)c1c(N2C(=O)Nc3ccccc3N2O)n[nH]c1-c1cccc(Cl)c1: inactive

Assay outcome for `Oc1oc(-c2cccc3ccccc23)nc1/C=N/c1nccs1` : what was it?
active

Assay outcome for `S=c1[nH]cc(Cc2ccccc2)s1` : what was it?
active

Assay outcome for CCCCCCCN1N=C(C)C(C(=O)c2ccccc2)C1=O (configuration not stated) : what was it?
inactive
